# study.system: MLKL (Homo sapiens)
# Sequence (Q8NB16 1-471): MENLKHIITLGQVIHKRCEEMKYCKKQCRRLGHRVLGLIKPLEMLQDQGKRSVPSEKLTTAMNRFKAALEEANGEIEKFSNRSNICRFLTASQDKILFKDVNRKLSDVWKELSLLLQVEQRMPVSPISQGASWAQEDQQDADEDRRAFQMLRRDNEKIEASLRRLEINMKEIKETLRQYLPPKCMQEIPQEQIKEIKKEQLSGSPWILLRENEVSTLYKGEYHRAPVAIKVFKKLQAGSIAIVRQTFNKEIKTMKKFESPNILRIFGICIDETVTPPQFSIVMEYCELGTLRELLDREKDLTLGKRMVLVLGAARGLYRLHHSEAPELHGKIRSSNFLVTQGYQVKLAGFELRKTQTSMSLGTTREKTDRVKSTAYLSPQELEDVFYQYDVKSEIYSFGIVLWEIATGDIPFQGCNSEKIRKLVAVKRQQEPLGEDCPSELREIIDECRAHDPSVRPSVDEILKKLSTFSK
pKd: −log10 of the molar value.
Decide by pKd: equal to or exceeding 8 means criterion met, less means criterion not met.

# count of solved cases: 3
INSERT INTO assay_data (compound, group_label) VALUES
  ('Nc1ncc(-c2cnn(C3CCN(CC4CCN(C(=O)CC5CCN(c6cccc7c6C(=O)N(C6CCC(=O)NC6=O)C7=O)CC5)CC4)CC3)c2)nc1C(=O)O[C@@H](C(=O)Nc1ccc(F)cc1)c1ccccc1 (some centres unmarked)', 'criterion met'),
  ('Nc1ncc(-c2cnn(C3CCN(CCCCCCCCCCNC(=O)C4CCN(c5ccc6c(c5)C(=O)N(C5CCC(=O)NC5=O)C6=O)CC4)CC3)c2)nc1C(=O)O[C@@H](C(=O)Nc1ccc(F)cc1)c1ccccc1 (some centres unmarked)', 'criterion not met'),
  ('Nc1ncc(-c2cnn(C3CCN(C(=O)COCCOCCNc4cccc5c4C(=O)N(C4CCC(=O)NC4=O)C5=O)CC3)c2)nc1C(=O)O[C@@H](C(=O)Nc1ccc(F)cc1)c1ccccc1 (some centres unmarked)', 'criterion not met');

Does the compound Nc1ncc(-c2cnn(C3CCN(CC4CCN(C(=O)COc5ccc6c(c5)C(=O)N(C5CCC(=O)NC5=O)C6=O)CC4)CC3)c2)nc1C(=O)O[C@@H](C(=O)Nc1ccc(F)cc1)c1ccccc1 (some centres unmarked) have recorded pKd that is 8 or more? criterion met

Does the compound Nc1ncc(-c2cnn(C3CCN(CCOCCNc4ccc5c(c4)C(=O)N(C4CCC(=O)NC4=O)C5=O)CC3)c2)nc1C(=O)O[C@@H](C(=O)Nc1ccc(F)cc1)c1ccccc1 (some centres unmarked) have recorded pKd that is 8 or more? criterion met
